# TEST_NAME: soluble on expression in E. coli; label from the status in PepcDB or PDB records
PARAMETER_MEASURED: soluble on expression in E. coli

Complete the entry with soluble on expression in E. coli for `MVATAFCDNIGFFKSPTEKRCDKDYECSGTDLCGHYVCTPLSEFRKCPEDKRCGFEYSCMSGVCRYMSDFDAERRFSNFGPDMKCKDSRVCPIGLHCSNGNCV` not soluble

Report soluble on expression in E. coli, nothing else, for this sequence: `MGSDKIHHHHHHMLNSMRINAFVKFQFPDDLLLNSNLVYGMVNGSTYEREIRDILGGREQAVKKYASKIPEKSDAIMSLIESPFYVTRSAGSFGADVIAIRHDFSMVIEVKSSVRPYLMFSEGSGKKQEQANRINEMCTKAGIFLTYAYRIKNVQGDPWKLFVVESKPIGRFSMVYELIPKIAKTREGNYIMKWEDGLPLSSFIEIINKKII` not soluble

Respond only with soluble on expression in E. coli recorded for `MGSDKIHHHHHHVSCDYFNRGLCQSCRLMSKPVTEQLLEKEARLTHLLGGLPVDERLAPVSGPEFGFRNKAKMVVMGAAHAPVLGIPGPDGQPVDLSHCPLYPQDMQALLLELTSFVRRAGIPPYRVDKAKGELKFILLTRSAVRGEFMLRFVLRSKDAIPRIERELPKLLADFPAIKVVSVNLQPVHMARLEGEEEIFLTQATRLDEVFNGVPLFIRPKSFFQTNPEVASRLYATAAKWVDELSPKSLWDLFCGVGGFGLHCANESLPVTGIEIEAEAIDCAKTSAAAMGLDNLSFAALDSTDFAMGQQAQEVPEVIIVNPPRRGIGEELCERLSAFGPRAIIYSSCNPETLAKDLALISGYRIARVQLFDMFPHSDHFEVLCLLLKEAACASAD` not soluble

Fill in soluble on expression in E. coli for record `MENAGKATSLQSSRDLFHRLMSENSSGGWEKSWEAGATPWDLGKPTPVIAHLVETGSLPNGRALVPGCGTGYDVVAMASPDRHVVGLDISKTAVERSTKKFSTLPNAKYFSFLSEDFFTWEPAEKFDLIFDYTFFCAFEPGVRPLWAQRMEKLLKPGGELITLMFPIDERSGGPPYEVSVSEYEKVLIPLGFEAISIVDNELAVGPRKGMEKLGRWKKSSTFHSTL` soluble

Give soluble on expression in E. coli for `MSYGLIIVLMIILGIGLWHTKKYHRAVVNQVAHVWITKNAFEHTALGMAIVSPDCRFLKVNRAYGEITGYTRPELLKMAVKELTHPEDQEKDTPYLQEVFAGNIHSFTTVKRYIHKNGSTIWVRSTISAVRTERGNLEHHHHHH` soluble

Determine from records and report soluble on expression in E. coli for `MIELEVFPHRYLKAETTEKFLNRAYSLSKVQRVVIHGESLPNKVGYGPAKGTPVNHSEKKEITVKGVPVELMLQVGRLWVLLDDESEIEKIEEICKDLFPFGYRLTKGKFLRNDPTVSDFIKYGESAVDDIDKRLLGATDPRSKFDSSVTIIPKSEKNELEHHHHHH` soluble

Next:
Output measured soluble on expression in E. coli for this item: `MGSDKIHHHHHHMTAPKIIDMQALRIFLAAAKDQNMSIAASKLGLTQSAVSQAIGQLEEQFGIKLLDRNRRPLTLTSAGYVLYERGEQLVSAALNLKGAVLEAGHGVRPAIRLGLVDSVATTCGTSIIKQLMPRVAQLKLQTGLSFDVGAALIDRRVDLAITSEPMHRENGLVRYRVLTEQFVVIFSPGLEVADRENTNLALLSAQLPMIRYRSQSHLGRQAETVLRRADLEIPQFLEVDTADTLTSMVAGGLGWALTTPLCLLQAQEHAKRVGIGFLQSSGDSRSIYLLARGGKFDSLIKDTFDITVSVLKEECLARLAYIHPSLDRHAMMGEWPGIAGHSKTTGARRQPDISSEGIE` not soluble

Specify measured soluble on expression in E. coli for `SQLNPTVMISGSSANNHRFDNLVAILNRQSTTHSLLRVQVNEDNSISYSGRIRPNDSQPYIVIGFQNNSDGYANIKRQAKWLEIAMKFLQKRYHFNHFNAFGHSNGGLDWTIYLEKYFNQKSSTIGTLMTVGSPFNFSEKSESNRTQMLTDLIKNRSKLPRDMTVYSIAGTETYNDDGIVPIESVLSGKYVFQKNVHSYTQITVSGNDSEHSDLPTNPQIVQLIQRDILDGRGQKQSSNPVFNNH` . not soluble

Name the recorded soluble on expression in E. coli of the item `FHLTTRNGEPHMIVSRQEKGKSLLFKTEDGVNMCTLMAMDLGELCEDTITYKCPLLRQNEPEDIDCWCNSTSTWVTYGTCT` in your answer. soluble

// fetch soluble on expression in E. coli given entry `SILELAEYTYFPPTLMASLILKNCDFSRKSINWLFKHLDCIENRRLRKEVRKALNADYFFSPRAHEMQCRKGEMGEEIVRKWLDDREIAYCTEAEIRAKGDGKTPDFVLSNPIFIEDHMVSWIESKALFGDDFEHKHYAKKQFREYADIFGEGMVVYWYGFLEDLSSEDEGYLIKDYRFFEGYQEQTDEL` soluble

---

# TEST_NAME: soluble on expression in E. coli; label from the status in PepcDB or PDB records
PARAMETER_MEASURED: soluble on expression in E. coli

Provide measured soluble on expression in E. coli value, entry: `MAIYTVKALITDPIDEILIKTLREKGIQVDYMPEISKEELLNIIGNYDIIVVRSRTKVTKDVIEKGKKLKIIARAGIGLDNIDTEEAEKRNIKVVYAPGASTDSAVELTIGLMIAAARKMYTSMALAKSGIFKKIEGLELAGKTIGIVGFGRIGTKVGIIANAMGMKVLAYDILDIREKAEKINAKAVSLEELLKNSDVISLHVTVSKDAKPIIDYPQFELMKDNVIIVNTSRAVAVNGKALLDYIKKGKVYAYATDVFWNEPPKEEWELELLKHERVIVTTHIGAQTKEAQKRVAEMTTQNLLNAMKELGMI` soluble

Consider the sequence `GPHMTQEEAVVNASLWEYVRLRESYDADTAQYAYDLVSNFSAPMVRQNYQQFFNYPNPTSPQVILGKHGRLEVEHIASNDVTPGVQQIRYKRTLIVDGKMPMASTWTATVRYEKVTSLPGRLRLTNPGGLVVTSYQTSEDTVSNAGHSEP` and give its recorded soluble on expression in E. coli. soluble

Write down soluble on expression in E. coli measured for item `MGHHHHHHSHGTRSKLSRHGSGADSDYENTQSGDPLLGLEGKRFLELGKEEDFHPELESLDGDLDPGLPSTEDVILKTEQVTKNIQELLRAAQEFKHDSFVPCSEKIHLAVTEMASLFPKRPALEPVRSSLRLLNASAYRLQSECRKTVPPEPGAPVDFQLLTQQVIQCAYDIAKAAKQLVTITTREKKQ` soluble

---

# TEST_NAME: soluble on expression in E. coli; label from the status in PepcDB or PDB records
PARAMETER_MEASURED: soluble on expression in E. coli

Observe how each entry below is paired with its result.
State its soluble on expression in E. coli: `MGSDKIHHHHHHMLTCNGSKTFQTFIKAVTDLINSNLLEDQMVCGIEKLLEELLEKKTWLPLEKQKANSAQYARHLLYEDPLNRFEVLALVWKDGQSTPLHDHDGTWGVEGVFTGRIMVQNFIQTKQLENSLVYLTHTGNLYLGEGETDKVIPPADCHILEIDDNESVVTIHVYGKRLEKFKVYVPTKEKNVYTCETKYIRYNS` not soluble

Note soluble on expression in E. coli for the sequence shown: `MGSDKIHHHHHHMLMPDAPSNTESLPTSVDLAGEYQASGVAEILDELDRELVGLKPVKQRIRETAALLLVERARRAMGLSHEPPSLHMSFTGNPGTGKTTVALRMANLLHRLGYIRKGHLVSVTRDDLVGQYIGHTAPKTKEILKKAMGGVLFIDEAYYLYRPDNERDYGQEAIEILLQVMENNRDDLVVILAGYADRMDRFFESNPGFRSRIAHHIDFPDYDNGELLSIAESMLSRQGYRFDSKASAVMSDYIARRRRQPHFANARSIRNALDRARLRQANRLFEESAGPVDAEQLSTITARDIAASRVFATVEPSHTETSP` not soluble

Give me measured soluble on expression in E. coli, please, for this sequence: `MSAEAADREAVSGSRPCTPPQTSWFEFLLNPSLLEQHLHSPHPDPSPVQLIFQFLEQASKPSVNEQNQVQPPVDNRRNRTLKLMALKVAAHLRWDLNMLEKGLTIPVLNMLLNELLCVSHVPPGVKHVDLDLSSLPPTTAMAVVFYNRWAIRTIVLSSFPEKQTKPGPHQLNMMNMLQQEKEHTENILSVLREQATDSIMVLEGALSIKKDFYIHL` not soluble

Given `MGSDKIHHHHHHMKKSERLNQELFFLRTHPQFNLNQLMKTFGISKSTALRDIEALENLGVPLYVENGRYGGYRVLNKPLLPPIYFNENEVLAIFFSLQLLKLVAESPFGHSYQQIKQKLLHSLDEPTQFKISQMSKVVYYEGIEQVEAPGNLEQLFHCILAQQVIQFNYTRYEATTKKILPTRLTILEGYWYCSGYDVTKKAWRTYRCDFMEAIQQLNQTLDFTTEELKESYRHQQTTARTIPFKAIITEKGKEFFYKHRFDNIQLEETPTQCFLVGQIHPTETQFLANYFMGFGEEVTILDPVQVKQAYVESIMRIQKKYQE` , respond with its soluble on expression in E. coli. not soluble

Quick one: give measured soluble on expression in E. coli for `MTRHQTHLPFHIVQEGNSIDKPPYSYVALIAMAIDASPDKRMTLNQIYKFIEAKFPYYRDADAKRKQGWQNSIRHNLSLNDCFVKKARDGQSCANDRKGNYWQMVADNAPQFDNGNFKRRRVKRLGIGKMGYANTTETTETGTILQQQLPFFNGLKWPQNIQTMDPFQFFKFQYPNSITDSANTSQINNSSSSSSSFDTSIYTSAFPIPTSHFDTNLVAPSQPPPVVSDVEVVPSDTVKEEVLVDMKPLIPGISSTTFLTSLQMTDPRSIEQQQLLSTASNMYPNAFMPPYTNWSCQPTTTFTGLSFDDPSLYGYGQQFPASS` not soluble

New cases:
Read off the recorded soluble on expression in E. coli for `MIDDDGYRPNVGIVICNRQGQVMWARRFGQHSWQFPQGGINPGESAEQAMYRELFEEVGLSRKDVRILASTRNWLRYKLPKRLVRWDTKPVCIGQKQKWFLLQLVSGDAEINMQTSSTPEFDGWRWVSYWYPVRQVVSFKRDVYRRVMKEFASVVMSLQENTPK` soluble

Return reported soluble on expression in E. coli. Input sequence: `MNNFLKHNDWARDPAFNHFWRHYDFSNQWIKQHTDASRQVQMQMVQRDNLSTEQCFSDSEEPEVIERLSRCEIYSEIENEESDIEEMSEEMKAFFAKTQEHRQKFSIRGRIEQSTDHRNASAEFIAKREKAKKDYGESATKILAMESTLAMKFESEYSQNPQLWPNIPFRF` not soluble

Provide soluble on expression in E. coli value for the following sequence: `MSTLLKSAKSIVPLMDRVLVQRIKAQAKTASGLYLPEKNVEKLNQAEVVAVGPGFTDANGNKVVPQVKVGDQVLIPQFGGSTIKLGNDDEVILFRDAEILAKIAKD` not soluble

Provide measured soluble on expression in E. coli value, entry: `MKIDLNCDLGEGFGVWQMGDDAAMMQIATSVNIACGFHAGDPDIMHATVKLAKQNGVAIGAHPGFRDLHGFGRRPVPGITAAEIENLVAYQIGALQAVAALAGHKVTHVKAHGALSNVACEDDMTARAIASAIKAVDPSLVFVVLANSKLMLAGEAAGLPLAHEVFADRAYEDDGNLVSRKKPGAVLHDPNEIAERVLRMAQDGAVVSVTGKVIKMRTDTVCIHGDTKGAVEIARGVRRKLEASGITVAPFAGTLEHHHHHH` soluble

Quick one: give measured soluble on expression in E. coli for `MSLNIAKIVREAREQSRLTTLDFATGIFDEFIQLHGDRSFRDDGAVVGGIGWLGDQAVTVVGIQKGKSLQDNLKRNFGQPHPEGYRKALRLMKQAEKFGRPVVTFINTAGAYPGVGAEERGQGEAIARNLMEMSDLKVPIIAIIIGEGGSGGALALAVADRVWMLENSIYAILSPEGFASILWKDGTRAMEAAELMKITSHELLEMDVVDKVISEVGLSSKELIKSVKKELQTELARLSQKPLEELLEERYQRFRKYEGHHHHHH` soluble

Specify soluble on expression in E. coli for `SPPENRGEHETGRTLHIATYNIHKGLSFFNQRLILHELRDQLHGLDVDVVFLQEVVGEHALHATRFRDWPRNTQYEFLADSMWPDFAYGKNAVYGHGHHGNAILSRFSIVNWENEDISAHRFESRGLLHCELAIPGWKDTLHCICVHLGLFRRGRSQQLEAIEKRIRQLVSPDAPLVVAGDFNDWRGAANPLLASRLNLVEVFQHTHGKAARSFPSVLPLLRLDRIYIRGFQVKNAQILHNRPWSRISDHAVLSANIMRT` and stop. not soluble

Read off the recorded soluble on expression in E. coli for `MVYVAVLANIAGNFPALTAALEKIEELKEEGYEIEKYYILGNIVGLFPYPREVIEAIKNLAKTSNVKVIRGKYDQLIAMSDPHAGDPKYIDKLEIPDHLKATLKYTWEKLGHEGREYLRDLPIYLVDKIGKNEIFGVYGSPVNPFDGEILPDQPTSYYEAIMRPVKEYEMLLVASPRYPLDAMTMYGRVVCPGSIGFPPAREHKATFALVDAETLKVKFIEVEYDKKIIEDRIKLEKLPEEVIKILYHGGKA` soluble
